- assayed.target: GPNMB-V5His (recombinant human GPNMB extracellular domain with C-terminal V5-His tag) (human) (UniProt Q14956)
- procedure.text: ELISA, coated GPNMB, Ab 333 ng/mL
reported.metric: Avg OD (OD)
Your answer should be a plain number; it is taken to be in OD.

Worked examples, 2 binders total:
Data request: Please give the measured Avg OD for this binder: 1.7.3 (antibody, V domains shown) VH: QVQLQESGPGLVKPSQTLSLTCTVSGGSISSANYYWTWIRQHPGKGLEWIGYIYYSGSTYCNPSLKSRVIISVDTSKNQFSLKLSSVTAADTAVYYCARGYNWNYFDYWGQGTLVTVSS VL: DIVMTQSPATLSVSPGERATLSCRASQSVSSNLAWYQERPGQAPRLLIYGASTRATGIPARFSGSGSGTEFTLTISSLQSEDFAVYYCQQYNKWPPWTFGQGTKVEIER
Data returned: 0.76

Data request: Please give the measured Avg OD for this binder: Mab1.2.2 (antibody, human IgG2, V domains shown) VH: ITLKESGPTLVKPTQTLTLTCTFSGFSLSAGGVGVGWIRQPPGKALEWLALIYWNDDKRYSPSLRSRLTITKDTSKNQVVLTITNMDPVDTATYYCAHSHYDYDWGSYFDYWGQGTLVTVSS VL: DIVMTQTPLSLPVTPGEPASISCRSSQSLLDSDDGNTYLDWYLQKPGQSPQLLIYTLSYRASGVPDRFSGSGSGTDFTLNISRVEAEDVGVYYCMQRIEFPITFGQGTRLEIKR
Data returned: 0.356

***
Data request: Please give the measured Avg OD for this binder: 2-17 (hybridoma of Table 6) (antibody, V domains shown) VH: QLVQSGAEVKKPGASVKVSCKASGYTFTGFYMHWVRQTPGQGLEWMGWINPNSGGTYYVQKFQGRVTMTRDTSISTVYMELSRLRSDDTAVYYCARDGYSSGEDWFDPWGQGTLVTVSS VL: DIVMTQTPLSLSVTPGQPASISCKSSQSLLHSGGKTYLYWYLQRPGQPPQLLIYEVSNRFSGVPDRFSGSGSGTDFTLKISRVEAEDVGVYYCMQSIHLPLTFGGGTKVEIKR
Data returned: 0.01

Data request: Please give the measured Avg OD for this binder: 2-7 (hybridoma of Table 6) (antibody, V domains shown) VH: QVQLEQSGGGVVQPGRSLRLSCAASGFTFNNYGMHWVRQAPGKGLEWVAVIWYDGSNKYYADSVKGRFTISRDNSKNTLYLQMNSLRAEDTAVYYCAKDEEYYYVSGLDYWGQGTLVTVSS VL: LTQSPSSLSASVRDRVTITCRASQDISNYLAWYQQKPGKVPNLLIYAASTLQSGVPSRFSGSGSGTDFTLTISSLQPEDVATYYCQKYNSAPLTFGGGTKVEIKR
Data returned: 0.68
